- tgt: Nitric oxide synthase, inducible (Homo sapiens, UniProt P35228)
- Sequence (P35228 whole entry): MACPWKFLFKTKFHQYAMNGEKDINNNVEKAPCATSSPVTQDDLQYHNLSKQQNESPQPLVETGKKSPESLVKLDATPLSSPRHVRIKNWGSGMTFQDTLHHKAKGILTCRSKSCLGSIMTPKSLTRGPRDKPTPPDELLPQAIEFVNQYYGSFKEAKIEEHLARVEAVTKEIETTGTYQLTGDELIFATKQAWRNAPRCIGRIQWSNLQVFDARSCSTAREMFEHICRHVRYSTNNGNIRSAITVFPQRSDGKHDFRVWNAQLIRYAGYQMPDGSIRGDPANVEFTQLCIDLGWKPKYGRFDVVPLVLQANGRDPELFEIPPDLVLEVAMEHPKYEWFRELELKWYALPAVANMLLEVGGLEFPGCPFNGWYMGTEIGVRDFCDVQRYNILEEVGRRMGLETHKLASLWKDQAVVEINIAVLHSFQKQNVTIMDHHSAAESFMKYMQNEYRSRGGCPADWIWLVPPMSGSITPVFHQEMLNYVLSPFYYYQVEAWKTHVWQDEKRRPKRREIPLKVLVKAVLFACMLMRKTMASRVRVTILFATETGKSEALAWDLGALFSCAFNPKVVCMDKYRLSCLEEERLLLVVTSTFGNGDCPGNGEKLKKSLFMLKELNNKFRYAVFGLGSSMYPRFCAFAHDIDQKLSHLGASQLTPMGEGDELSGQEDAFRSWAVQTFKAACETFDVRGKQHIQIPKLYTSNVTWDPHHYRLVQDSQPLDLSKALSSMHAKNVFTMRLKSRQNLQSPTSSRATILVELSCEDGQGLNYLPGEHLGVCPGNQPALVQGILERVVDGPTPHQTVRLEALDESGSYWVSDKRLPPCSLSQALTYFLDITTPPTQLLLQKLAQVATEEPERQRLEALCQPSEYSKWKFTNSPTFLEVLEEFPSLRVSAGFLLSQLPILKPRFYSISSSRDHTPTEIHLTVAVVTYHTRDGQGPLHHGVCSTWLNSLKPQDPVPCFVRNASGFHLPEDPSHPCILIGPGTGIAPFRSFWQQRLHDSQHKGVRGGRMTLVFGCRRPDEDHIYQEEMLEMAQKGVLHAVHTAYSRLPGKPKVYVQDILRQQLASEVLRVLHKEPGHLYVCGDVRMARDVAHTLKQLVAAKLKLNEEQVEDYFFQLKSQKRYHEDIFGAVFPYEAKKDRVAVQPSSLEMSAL
- test protocol: Inhibition of human recombinant iNOS expressed in Sf9 cells assessed as inhibition of conversion of [3H]-L-arginine to [3H]-L-citrulline after 45 mins by liquid scintillation counting
For each record, write down the corresponding IC50.
In your response, the unit should come after the numeric value.

Enquiry: Return value of IC50 for input `COC(=O)[C@@H](N)CCCNC(=N)N[N+](=O)[O-]` , no commentary.
Return: 0.83 µM

Enquiry: Respond only with IC50 recorded for CN1CCC(c2c[nH]c3cc(NC(=N)c4cccs4)ccc23)C1 (configuration not stated)
Return: 2.6 µM

Enquiry: Please give the documented IC50 of `N=C(Nc1ccc2c(C3=CN4CCC3CC4)c[nH]c2c1)c1cccs1`
Return: 8.4 µM

Enquiry: Using known records, supply IC50 for N=C(Nc1ccc2c(C3CN4CCC3CC4)c[nH]c2c1)c1cccs1 (racemic)
Return: 18.4 µM

Enquiry: Supply recorded IC50 for N=C(Nc1ccc2c(C3CN4CCC3CC4)c[nH]c2c1)c1cccs1 (single isomer, unassigned; enantiomer 1) here.
Return: 52.1 µM

Enquiry: Provide one value: measured IC50 of `CN1CC=C(c2c[nH]c3cc(NC(=N)c4cccs4)ccc23)CC1.Cl.Cl`
Return: 12.3 µM

Enquiry: Look up and state reported IC50 for Cl.Cl.N=C(Nc1ccc2c(C3CN4CCC3CC4)c[nH]c2c1)c1cccs1 (single isomer, unassigned; enantiomer 2)
Return: 139 µM

---

- tgt: Cytochrome P450 2C9 (Homo sapiens, UniProt P11712)
- Sequence (P11712 whole entry): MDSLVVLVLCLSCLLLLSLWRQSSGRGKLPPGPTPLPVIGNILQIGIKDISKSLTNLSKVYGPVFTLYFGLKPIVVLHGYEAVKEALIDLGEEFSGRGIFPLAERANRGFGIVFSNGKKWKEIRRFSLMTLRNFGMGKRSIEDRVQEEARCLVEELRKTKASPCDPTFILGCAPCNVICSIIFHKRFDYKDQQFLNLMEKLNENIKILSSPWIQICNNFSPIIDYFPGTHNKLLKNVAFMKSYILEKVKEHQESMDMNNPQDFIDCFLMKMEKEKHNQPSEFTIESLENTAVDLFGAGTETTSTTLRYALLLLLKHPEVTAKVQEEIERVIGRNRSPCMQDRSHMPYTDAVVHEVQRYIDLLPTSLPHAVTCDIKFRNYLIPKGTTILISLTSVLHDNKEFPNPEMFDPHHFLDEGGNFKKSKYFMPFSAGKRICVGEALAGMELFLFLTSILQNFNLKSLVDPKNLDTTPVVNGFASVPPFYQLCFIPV
- test protocol: Inhibition of CYP2C9 using MFC as substrate
- Format: ADME
- condition summary: read-out: IC50
quantity kind: pIC50
// scale note: pIC50 = -log10(conc_M); give the bare number

Enquiry: For the molecule `CN1CC=C(c2c[nH]c3cc(NC(=N)c4cccs4)ccc23)CC1.Cl.Cl` , give its reported pIC50.
Return: 4.14

---

- tgt: Cytochrome P450 1A2 (Homo sapiens)
- Sequence (P05177 whole entry): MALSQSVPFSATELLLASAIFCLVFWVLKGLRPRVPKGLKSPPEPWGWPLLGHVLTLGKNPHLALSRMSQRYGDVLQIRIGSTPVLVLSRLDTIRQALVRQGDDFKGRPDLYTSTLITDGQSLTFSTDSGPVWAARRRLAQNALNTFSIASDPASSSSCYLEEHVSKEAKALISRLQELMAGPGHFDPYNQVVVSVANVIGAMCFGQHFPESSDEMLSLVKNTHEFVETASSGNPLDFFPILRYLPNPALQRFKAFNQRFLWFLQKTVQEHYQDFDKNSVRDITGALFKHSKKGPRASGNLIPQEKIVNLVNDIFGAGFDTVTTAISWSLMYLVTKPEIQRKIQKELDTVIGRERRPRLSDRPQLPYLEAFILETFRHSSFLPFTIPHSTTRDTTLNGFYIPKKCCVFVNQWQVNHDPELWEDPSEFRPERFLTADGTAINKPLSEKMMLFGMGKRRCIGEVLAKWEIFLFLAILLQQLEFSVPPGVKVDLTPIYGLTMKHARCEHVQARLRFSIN
- test protocol: Inhibition of CYP1A2 using CEC as substrate
- Assay type: ADME
- condition summary: read-out: IC50
quantity kind: IC50

Enquiry: // Input: `CN1CC=C(c2c[nH]c3cc(NC(=N)c4cccs4)ccc23)CC1.Cl.Cl` . Output its IC50 only.
Return: > 100 µM

---

- tgt: Cytochrome P450 3A4 (Homo sapiens, UniProt P08684)
- Sequence (P08684 whole entry): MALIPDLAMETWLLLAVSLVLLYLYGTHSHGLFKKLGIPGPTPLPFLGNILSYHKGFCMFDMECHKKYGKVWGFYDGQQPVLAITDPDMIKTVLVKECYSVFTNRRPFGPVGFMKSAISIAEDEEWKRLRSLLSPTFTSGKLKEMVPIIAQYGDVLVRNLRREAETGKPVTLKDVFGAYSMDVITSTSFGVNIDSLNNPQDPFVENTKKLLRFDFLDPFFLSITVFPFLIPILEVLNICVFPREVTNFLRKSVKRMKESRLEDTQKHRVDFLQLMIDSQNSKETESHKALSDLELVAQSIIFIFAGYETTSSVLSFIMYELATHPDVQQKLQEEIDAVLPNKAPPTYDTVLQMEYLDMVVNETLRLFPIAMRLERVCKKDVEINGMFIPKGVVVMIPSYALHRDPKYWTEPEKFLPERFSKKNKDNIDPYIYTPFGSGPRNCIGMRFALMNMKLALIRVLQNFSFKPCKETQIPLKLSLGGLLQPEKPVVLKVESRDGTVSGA
- test protocol: Inhibition of CYP3A4 using BQ as substrate
- Type: ADME
Could you please report measured IC50 for the items listed next?

Enquiry: Fill in IC50 for record Cl.Cl.N=C(Nc1ccc2c(C3CN4CCC3CC4)c[nH]c2c1)c1cccs1 (single isomer, unassigned; enantiomer 2)
Return: > 100 µM

Enquiry: Answer with the recorded IC50 for the molecule listed here: `CN1CC=C(c2c[nH]c3cc(NC(=N)c4cccs4)ccc23)CC1.Cl.Cl`
Return: > 100 µM

---

- tgt: Nitric oxide sythases; iNOS & nNOS (Homo sapiens) (UniProt P29475+P35228)
- Sequence (P29475 whole entry, looked up): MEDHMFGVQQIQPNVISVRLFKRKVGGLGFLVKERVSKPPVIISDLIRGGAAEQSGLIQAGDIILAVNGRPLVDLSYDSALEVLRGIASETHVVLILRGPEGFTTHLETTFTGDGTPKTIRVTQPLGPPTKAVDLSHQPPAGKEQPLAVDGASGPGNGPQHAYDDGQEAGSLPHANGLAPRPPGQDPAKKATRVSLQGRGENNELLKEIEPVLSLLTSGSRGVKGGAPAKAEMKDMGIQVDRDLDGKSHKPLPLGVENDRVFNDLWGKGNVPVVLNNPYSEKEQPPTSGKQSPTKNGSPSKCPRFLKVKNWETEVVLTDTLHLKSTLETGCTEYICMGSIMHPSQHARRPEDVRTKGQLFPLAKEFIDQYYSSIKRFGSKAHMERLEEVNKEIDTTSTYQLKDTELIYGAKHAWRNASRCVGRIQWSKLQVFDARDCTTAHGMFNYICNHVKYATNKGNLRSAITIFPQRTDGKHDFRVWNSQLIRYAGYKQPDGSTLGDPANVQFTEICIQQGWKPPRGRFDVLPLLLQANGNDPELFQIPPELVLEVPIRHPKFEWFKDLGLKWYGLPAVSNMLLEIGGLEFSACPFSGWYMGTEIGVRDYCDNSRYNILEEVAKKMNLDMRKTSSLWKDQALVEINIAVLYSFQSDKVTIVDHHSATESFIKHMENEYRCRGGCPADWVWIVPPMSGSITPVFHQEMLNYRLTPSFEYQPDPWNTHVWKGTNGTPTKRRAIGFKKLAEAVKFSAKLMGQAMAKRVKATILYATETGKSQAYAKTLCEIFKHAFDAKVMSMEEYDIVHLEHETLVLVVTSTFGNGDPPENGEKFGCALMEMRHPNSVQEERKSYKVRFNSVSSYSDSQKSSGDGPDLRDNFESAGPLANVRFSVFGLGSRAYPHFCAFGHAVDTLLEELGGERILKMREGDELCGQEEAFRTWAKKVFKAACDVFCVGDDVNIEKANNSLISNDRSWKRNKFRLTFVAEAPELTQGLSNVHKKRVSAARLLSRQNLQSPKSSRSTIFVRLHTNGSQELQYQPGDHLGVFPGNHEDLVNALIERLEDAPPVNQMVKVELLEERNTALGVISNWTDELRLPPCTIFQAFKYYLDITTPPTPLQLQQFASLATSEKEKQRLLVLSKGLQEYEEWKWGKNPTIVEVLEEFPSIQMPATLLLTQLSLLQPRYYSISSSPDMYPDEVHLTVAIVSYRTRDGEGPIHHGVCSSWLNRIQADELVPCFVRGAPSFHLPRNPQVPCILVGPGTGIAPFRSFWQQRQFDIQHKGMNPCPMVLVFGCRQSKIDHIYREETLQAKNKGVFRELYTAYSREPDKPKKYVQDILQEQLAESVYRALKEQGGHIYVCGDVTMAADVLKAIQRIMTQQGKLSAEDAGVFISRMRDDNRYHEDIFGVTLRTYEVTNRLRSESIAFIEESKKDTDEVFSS
- Sequence (P35228 whole entry, looked up): as the sequence (P35228 whole entry) above
- test protocol: Selectivity ratio of IC50 for human recombinant iNOS to IC50 for human recombinant nNOS
Note to self: values exactly at 20 are Yes. So Ratio IC50 at or above 20 is Yes, below is No.

Enquiry: Please tell me: is the compound CN1CCC(c2c[nH]c3cc(NC(=N)c4cccs4)ccc23)C1 (centres undefined) at or over 20 in terms of Ratio IC50?
Return: No

Enquiry: Does the reported Ratio IC50 for `CN1CCC[C@@H]1CCn1ccc2ccc(/N=C(\N)c3cccs3)cc21` fall at or above the 20 mark?
Return: Yes

Enquiry: Confirm if Ratio IC50 reported for the compound `COC(=O)[C@@H](N)CCCNC(=N)N[N+](=O)[O-]` is 20 or above.
Return: No

Enquiry: # bool: Ratio IC50 of N=C(Nc1ccc2c(C3CN4CCC3CC4)c[nH]c2c1)c1cccs1 (single isomer, unassigned; enantiomer 1) >= 20
Return: Yes

Enquiry: Could you tell me if the measured Ratio IC50 of N=C(Nc1ccc2c(C3CN4CCC3CC4)c[nH]c2c1)c1cccs1 (racemic) reaches 20 or more?
Return: No

Enquiry: Reported Ratio IC50 reaches at least 20 for `CN1CCC(c2c[nH]c3cc(NC(=N)c4cccs4)ccc23)CC1` ?
Return: Yes

Enquiry: Quick check, Ratio IC50 >= 20? N=C(Nc1ccc2c(C3CN4CCC3CC4)c[nH]c2c1)c1cccs1 (single isomer, unassigned; enantiomer 2)
Return: Yes

Enquiry: Does Ratio IC50 meet or surpass 20 for `N=C(Nc1ccc2c(C3=CN4CCC3CC4)c[nH]c2c1)c1cccs1` ?
Return: No

Enquiry: API: above_or_equal(metric=Ratio IC50, cutoff=20) for item `CN1CC=C(c2c[nH]c3cc(NC(=N)c4cccs4)ccc23)CC1.Cl.Cl`
Return: No
